# TARGET_DESC: SFRP-1 (Homo sapiens, UniProt Q8N474)
# Sequence (Q8N474 32-314): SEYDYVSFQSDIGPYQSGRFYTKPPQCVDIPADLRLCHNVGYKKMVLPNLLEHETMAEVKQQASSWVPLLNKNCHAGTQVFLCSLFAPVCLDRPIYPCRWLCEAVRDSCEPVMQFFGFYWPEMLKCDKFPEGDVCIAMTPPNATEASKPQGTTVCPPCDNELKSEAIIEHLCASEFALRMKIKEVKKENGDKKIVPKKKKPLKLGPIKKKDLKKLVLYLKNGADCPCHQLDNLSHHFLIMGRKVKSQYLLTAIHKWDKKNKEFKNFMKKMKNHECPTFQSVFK
# METHOD_NOTES: Cell-based assay for in vitro measurement of SFRP-1/SARP2 antagonist activity (U2OS cells co-transfected with 16x TCF-tk-Luciferase reporter, Wnt and hSFRP-1);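 further: U2OS cells co-transfected with a TCF-tk luciferase reporter, a Wnt vector, hSFRP-1 or empty vector and CMV-βgal, luciferase luminescence read in cell lysates alongside βgal activity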
# CONDITION_INFO: U2OS, read-out: Fold Induction without SFRP-1, Conc 15 μM; without SFRP-1, single dose
MEASUREMENT_TYPE: fold induction at 15 µM

COCCNS(=O)(=O)c1cc(S(=O)(=O)c2ccc(F)cc2)ccc1C [Example 175]: 0.9
CCOc1ccccc1S(=O)(=O)c1ccc(C)c(S(=O)(=O)NCCc2ccccn2)c1 [Example 420]: 1.3
Cc1ccc(S(=O)(=O)c2ccccc2)cc1S(=O)(=O)N(C)CCc1ccccc1 [Example 278]: 0.9
Cc1ccc(S(=O)(=O)c2ccc(NCCC#N)cc2)cc1S(=O)(=O)NCCCn1ccnc1 [Example 353]: 1.1
Cc1ccc(S(=O)(=O)c2ccc(F)cc2)cc1S(=O)(=O)NCCCN(C)C [Example 174]: 1.2

[P] CCN(CC)CCN1CCN(S(=O)(=O)c2cc(S(=O)(=O)c3ccccc3)ccc2C)CC1 [Example 280]
[Q] CC(C)c1ccc(S(=O)(=O)c2ccc(NCCC#N)cc2)cc1S(=O)(=O)NCCn1ccnc1 [Example 450]
Field: lower recorded fold induction at 15 µM (choose P or Q ) Lab log: write the label of the selected item as the result.
Q
